# TARGET SYSTEM: MFN1-MGD (minimal GTPase domain of human MFN1) (Homo sapiens, UniProt Q8IWA4, DEL365-693)
# Sequence (Q8IWA4 1-364, stated change not applied): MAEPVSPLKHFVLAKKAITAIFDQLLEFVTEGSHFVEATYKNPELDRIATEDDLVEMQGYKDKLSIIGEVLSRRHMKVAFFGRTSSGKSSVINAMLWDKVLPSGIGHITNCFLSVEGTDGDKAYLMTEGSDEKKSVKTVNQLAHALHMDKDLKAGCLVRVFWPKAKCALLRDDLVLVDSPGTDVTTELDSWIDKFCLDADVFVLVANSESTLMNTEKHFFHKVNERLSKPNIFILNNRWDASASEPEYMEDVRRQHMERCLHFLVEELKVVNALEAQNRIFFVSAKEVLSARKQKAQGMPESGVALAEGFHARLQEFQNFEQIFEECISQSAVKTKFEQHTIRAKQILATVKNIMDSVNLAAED
# Sequence (Q8IWA4 694-741, stated change not applied): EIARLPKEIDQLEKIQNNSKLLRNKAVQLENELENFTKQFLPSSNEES
# METHOD NOTES: isothermal titration calorimetry
# Assay type: binding
READOUT LABEL: Kd (µM)
Field format: number, assumed µM, no unit text.

Query string: Name the reported Kd value associated with the compound "Nc1nc2c(ncn2[C@@H]2O[C@H](COP(=O)(O)OP(=O)(O)O)[C@@H](O)[C@H]2O)c(=O)[nH]1"
Result string: 91.7
